# PROCEDURE SUMMARY: STAT1 signaling activators, primary screen, cell-based, HTS, luciferase reporter (AID 932);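 further: raw ratio to IFN-gamma control signal so 100% means no change and 0% no light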
# PROTOCOL CONDITIONS: NIH 3T3 STAT1-luciferase reporter, IFN-gamma, luminescence; at 5.5 µM; 100% = IFN-gamma alone, no compound
Screen size: about 200,000 compounds; about 5,100 (2.5%) were called active.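 How the source made its calls: active means activation above the screen-wide mean activation plus 3 SD (cut at about 130% in these data); inactive means the rest.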 The entries come from a sample that favours actives as a whole.
Choose one outcome from this list and give only that: 1 = active, 0 = inactive

>>> class("CCOC(=O)/C(=N\\Nc1ccccc1[N+](=O)[O-])c1csc(Nc2ccccc2)n1")
0
>>> class("CC(=O)c1cccc(NC(=O)[C@@H](NC(N)=O)C(C)C)c1")
0

So what was the verdict on O=C1C(C=NCC2CCCO2)=C(O)c2ccccc21 (stereo unspecified) in this test?
1

Please do the same for `O=C(CSc1nc2ccccc2[nH]1)c1cccs1` as well.
1

Would you kindly repeat that for `Cc1c(C(=O)Nc2ccccc2)sc2nc3n(c(=O)c12)CCCCC3` ?
1

Moving on to `COc1cccc(NCCC(=O)c2cccc([N+](=O)[O-])c2)c1`
0

---

# PROCEDURE SUMMARY: STAT1 signaling activators, primary screen, cell-based, HTS, luciferase reporter (AID 932);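 further: raw ratio to IFN-gamma control signal so 100% means no change and 0% no light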
# PROTOCOL CONDITIONS: NIH 3T3 STAT1-luciferase reporter, IFN-gamma, luminescence; at 5.5 µM; active compounds read high; 100% = IFN-gamma alone, no compound
Among all 200,000 compounds or so, about 5,100 (2.5%) were called active. For the sample, actives were picked, then their nearest neighbours and some compounds at random.
Answer each item with its documented activation (% of control).
Numbers only, in %.

>>> endpoint_value("CCn1ncc(CNC(=O)C2(C)CC2(Br)Br)c1C (stereo unspecified)")
90
>>> endpoint_value("Cc1ccc(NC(=O)CC2C(=O)N(Cc3ccccc3)C(=S)N2NC(=O)c2cccc(F)c2)c(C)c1 (stereo unspecified)")
103
>>> endpoint_value("COC(=O)CCC(=O)N1CCCC(CO)(Cc2ccccc2)C1 (stereo unspecified)")
146
>>> endpoint_value("COC(C(=O)Nc1ccc(S(=O)(=O)Nc2ccc(C)c(C)c2)cc1)c1ccccc1 (stereo unspecified)")
108
>>> endpoint_value("Cc1ccc(NC(=O)c2ccc(S(=O)(=O)NCC3CCCO3)cc2)cc1C (stereo unspecified)")
103
>>> endpoint_value("CC(=O)c1cccc(CN2CCC(CO)(Cc3ccccc3)CC2)c1")
96
>>> endpoint_value("CCNc1nc(-c2cc3ccccc3o2)cs1")
176
>>> endpoint_value("CCOc1ccc(OCc2cccc(C(=O)N(CC)CC)c2)cc1")
43.9
>>> endpoint_value("Cc1nc(C)c(-c2csc(NCCc3ccccc3)n2)s1")
102
>>> endpoint_value("Fc1ccc2c(c1)C(c1cccnc1)=NNC(c1cccs1)=N2")
103

Now look at this one.
Consider the molecule `CCc1nc(C)cn1S(=O)(=O)c1cc([N+](=O)[O-])ccc1Cl` and give its measured activation (% of control).
87.5

---

Assignment: determine reported activation (% of control) for the given compounds.
# PROCEDURE SUMMARY: STAT1 signaling activators, primary screen, cell-based, HTS, luciferase reporter (AID 932);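 further: raw ratio to IFN-gamma control signal so 100% means no change and 0% no light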
# PROTOCOL CONDITIONS: NIH 3T3 STAT1-luciferase reporter, IFN-gamma, luminescence; at 5.5 µM; active compounds read high; 100% = IFN-gamma alone, no compound
About 5,100 (2.5%) of roughly 200,000 compounds were called active. The full list was thinned out, with actives kept by preference.
Answers are plain numbers, in %.

Reference set, count: 4
>>> endpoint_value("CN(Cc1cccc2ncccc12)C(=O)CC1C(=O)NCCN1Cc1ccc(F)cc1 (stereo unspecified)")
98.1
>>> endpoint_value("CCC(=O)Nc1ccc(C(=O)N2CCN(C(=O)c3ccco3)CC2)cc1")
99.8
>>> endpoint_value("O=C(NC1CC1)c1cccc(Br)c1")
98.5
>>> endpoint_value("O=S(=O)(c1cccc(C(F)(F)F)c1)N1CCN(c2cnccn2)CC1")
108

For every listed record, write down its activation (% of control).
1. Cc1nc2ccccn2c1C(=O)NN=C1CCN(C)CC1
2. Cc1ccc(C(=O)NC2CCN(C(=O)N3CCOCC3)CC2)cc1

1: 96.3; 2: 98.8
